Biological target: Neuronal acetylcholine receptor subunit alpha-4 (Homo sapiens, UniProt P43681); further: assay procedure not described here
Sequence (P43681 whole entry): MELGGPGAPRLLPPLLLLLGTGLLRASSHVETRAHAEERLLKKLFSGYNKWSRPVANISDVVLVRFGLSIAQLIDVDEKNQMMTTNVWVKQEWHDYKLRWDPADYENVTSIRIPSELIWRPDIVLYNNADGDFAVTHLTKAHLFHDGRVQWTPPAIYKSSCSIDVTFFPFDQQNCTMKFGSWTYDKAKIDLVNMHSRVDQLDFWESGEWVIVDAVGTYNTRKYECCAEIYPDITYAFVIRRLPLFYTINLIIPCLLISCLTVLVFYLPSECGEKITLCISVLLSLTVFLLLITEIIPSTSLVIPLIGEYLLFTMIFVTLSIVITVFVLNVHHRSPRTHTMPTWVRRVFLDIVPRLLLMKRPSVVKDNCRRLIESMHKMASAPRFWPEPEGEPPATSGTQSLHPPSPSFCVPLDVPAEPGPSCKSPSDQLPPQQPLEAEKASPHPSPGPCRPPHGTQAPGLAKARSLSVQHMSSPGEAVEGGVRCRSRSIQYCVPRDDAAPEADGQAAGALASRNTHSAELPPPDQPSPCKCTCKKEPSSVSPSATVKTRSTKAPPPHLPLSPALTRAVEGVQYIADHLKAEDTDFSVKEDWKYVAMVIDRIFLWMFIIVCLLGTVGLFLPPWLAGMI
Assignment: determine reported AC50 for the given compounds.

Reported AC50 for C[C@H](CSC(=O)c1ccccc1)C(=O)N1C[C@@H](Sc2ccccc2)C[C@H]1C(=O)O was > 10 µM

Reported AC50 for CCC(C)n1ncn(-c2ccc(N3CCN(c4ccc(OCC5COC(Cn6cncn6)(c6ccc(Cl)cc6Cl)O5)cc4)CC3)cc2)c1=O (stereo not drawn) was > 30 µM

Reported AC50 for CC(C)=CCC/C(C)=C/C=C/C(C)=C/C=C/C(C)=C/C=C/C=C(C)/C=C/C=C(C)/C=C/C=C(\C)CCC=C(C)C was > 30 µM

Reported AC50 for CN1C(=O)C(O)N=C(c2ccccc2Cl)c2cc(Cl)ccc21 (stereo not drawn) was > 30 µM

Reported AC50 for C1CCC(C(CC2CCCCN2)C2CCCCC2)CC1 (stereo not drawn) was > 3 µM

Here are 3 compounds. What values of AC50 were reported for them?
1. Cc1cccc(Nc2ccccc2C(=O)O)c1C
2. CCC(CC)(CC(=O)Nc1cccc(/C=C/c2nc(C3CCC3)cs2)c1)C(=O)O
3. Cc1c(C(=O)NN2CCCCC2)nn(-c2ccc(Cl)cc2Cl)c1-c1ccc(Cl)cc1

[reply]
1: > 10 µM; 2: > 30 µM; 3: > 10 µM

###

Recorded below: AC50, system Sodium-dependent serotonin transporter (Homo sapiens). Further: assay procedure not described here.

Reported AC50 for Nc1ccc2cc3ccc(N)cc3nc2c1 was 26.6 µM

Reported AC50 for CC(=O)OCC(=O)[C@@]1(O)CC[C@H]2[C@@H]3CCC4=CC(=O)C=C[C@]4(C)[C@@]3(Cl)[C@@H](Cl)C[C@@]21C [DICHLORISONE ACETATE] was > 30 µM

Reported AC50 for COC1=C(OC)C(=O)C(C/C=C(\C)CC/C=C(\C)CC/C=C(\C)CC/C=C(\C)CC/C=C(\C)CC/C=C(\C)CC/C=C(\C)CC/C=C(\C)CC/C=C(\C)CCC=C(C)C)=C(C)C1=O was > 30 µM

Reported AC50 for CC(C)(C)NCC(O)COc1cccc2c1SCCC2 (stereo not drawn) was 17.3 µM

Reported AC50 for CCCCCCOc1nsnc1C1=CCCN(C)C1 was 18.5 µM

Here are 3 molecules. What values of AC50 were reported for them?
1. CCC(=O)NCC[C@@H]1CCc2ccc3c(c21)CCO3
2. CCN(CC)CCNc1ccc(CO)c2sc3ccccc3c(=O)c12
3. CC1(C)NC(=O)N(c2ccc([N+](=O)[O-])c(C(F)(F)F)c2)C1=O [NILUTAMIDE]

[reply]
1. > 30 µM
2. 16 µM
3. > 30 µM

###

Recorded below: AC50, system UniProt:P41968.
Sequence (P41968 whole entry): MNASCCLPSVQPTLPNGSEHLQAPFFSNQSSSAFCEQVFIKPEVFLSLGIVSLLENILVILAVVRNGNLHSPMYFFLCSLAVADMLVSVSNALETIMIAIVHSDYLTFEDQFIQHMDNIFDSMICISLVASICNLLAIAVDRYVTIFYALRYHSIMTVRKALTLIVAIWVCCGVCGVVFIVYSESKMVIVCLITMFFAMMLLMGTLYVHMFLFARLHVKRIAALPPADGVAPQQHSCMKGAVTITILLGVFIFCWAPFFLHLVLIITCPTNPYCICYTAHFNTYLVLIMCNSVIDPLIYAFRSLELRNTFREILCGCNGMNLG

Reported AC50 for NS(=O)(=O)Cc1noc2ccccc12 [ZONISAMIDE] was > 10 µM

Here are 8 compounds. What values of AC50 were reported for them?
1. CC(C(=O)O)c1ccc(N2Cc3ccccc3C2=O)cc1 (stereo not drawn)
2. NCC[C@H](O)C(=O)N[C@@H]1C[C@H](N)[C@@H](O[C@H]2O[C@H](CN)[C@@H](O)[C@H](O)[C@H]2O)[C@H](O)[C@H]1O[C@H]1O[C@H](CO)[C@@H](O)[C@H](N)[C@H]1O
3. O=C(O)CCCCCCCC(=O)O
4. CCC1(CC)C(=O)NCC(C)C1=O (stereo not drawn)
5. NC(=O)CN1CC(O)CC1=O (stereo not drawn)
6. CC[C@H]1CN2CCc3cc(OC)c(OC)cc3[C@@H]2C[C@@H]1C[C@H]1NCCc2cc(OC)c(OC)cc21
7. C#C[C@]1(O)CC[C@H]2[C@@H]3[C@H](C)CC4=C(CCC(=O)C4)[C@H]3CC[C@@]21C
8. CCOC(=O)[C@H](CCc1ccccc1)N[C@@H](C)C(=O)N1C(=O)N(C)C[C@H]1C(=O)O

[reply]
1. > 30 µM
2. > 10 µM
3. > 10 µM
4. > 30 µM
5. > 30 µM
6. > 30 µM
7. > 30 µM
8. > 30 µM

Here are 2 compounds. What values of AC50 were reported for them?
1. Cc1ccc(S(=O)(=O)NC(=O)NN2CC3CCCC3C2)cc1 (stereo not drawn) [GLICLAZIDE]
2. Cc1cccc(C(C)c2cnc[nH]2)c1C (stereo not drawn)

[reply]
1: > 10 µM; 2: > 30 µM

Here are 6 compounds. What values of AC50 were reported for them?
1. C[C@]12CCC(=O)C=C1CC[C@@H]1[C@@H]2[C@@H](O)C[C@@]2(C)[C@H]1CC[C@]2(O)C(=O)CO [HYDROCORTISONE]
2. CN(C)CC/C=C1\c2ccccc2CSc2ccccc21 [DOTHIEPIN]
3. CCOc1ccc(Cc2cc([C@@H]3O[C@H](CO)[C@@H](O)[C@H](O)[C@H]3O)ccc2Cl)cc1
4. O=P1(NCCCl)OCCCN1CCCl (stereo not drawn) [IFOSFAMIDE]
5. Cn1c(=O)c2c(ncn2CC2OCCO2)n(C)c1=O
6. CCOC(=O)[N-]c1cn(N2CCOCC2)n[o+]1

[reply]
1. > 30 µM
2. 25 µM
3. > 30 µM
4. > 30 µM
5. > 30 µM
6. > 30 µM

Reported AC50 for Cc1c(OCC(F)(F)F)ccnc1C[S+]([O-])c1nc2ccccc2[nH]1 (stereo not drawn) was > 30 µM

###

Target: 3',5'-cyclic-AMP phosphodiesterase 4D (Homo sapiens, UniProt Q08499); further: assay procedure not described here
Sequence (Q08499 whole entry): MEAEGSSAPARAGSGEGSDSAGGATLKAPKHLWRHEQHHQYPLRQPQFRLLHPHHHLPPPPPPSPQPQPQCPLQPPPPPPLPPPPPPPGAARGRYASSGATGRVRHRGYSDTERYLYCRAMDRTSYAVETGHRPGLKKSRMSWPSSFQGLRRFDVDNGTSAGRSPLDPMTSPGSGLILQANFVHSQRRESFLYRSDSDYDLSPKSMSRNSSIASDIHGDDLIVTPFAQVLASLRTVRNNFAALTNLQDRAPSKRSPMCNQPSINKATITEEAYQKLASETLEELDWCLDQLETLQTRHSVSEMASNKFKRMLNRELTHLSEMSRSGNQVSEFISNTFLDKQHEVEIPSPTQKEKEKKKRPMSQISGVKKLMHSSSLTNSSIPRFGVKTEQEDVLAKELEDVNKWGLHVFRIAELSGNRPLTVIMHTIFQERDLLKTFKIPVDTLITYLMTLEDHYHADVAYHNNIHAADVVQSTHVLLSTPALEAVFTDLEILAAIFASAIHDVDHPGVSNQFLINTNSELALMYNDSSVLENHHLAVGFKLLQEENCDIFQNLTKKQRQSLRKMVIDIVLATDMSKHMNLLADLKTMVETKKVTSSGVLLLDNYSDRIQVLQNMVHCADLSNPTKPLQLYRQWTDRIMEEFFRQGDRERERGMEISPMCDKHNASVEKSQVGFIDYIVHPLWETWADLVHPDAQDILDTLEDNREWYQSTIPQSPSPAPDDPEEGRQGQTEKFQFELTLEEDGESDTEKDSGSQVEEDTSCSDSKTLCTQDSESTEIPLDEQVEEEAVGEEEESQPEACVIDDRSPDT
Type: functional
metric: AC50

Consider the reported AC50 for these molecules:
Reported AC50 for C[C@](N)(Cc1ccc(O)c(O)c1)C(=O)O was > 30 µM

Reported AC50 for Cc1nc([N+](=O)[O-])cn1-c1ccc([N+](=O)[O-])cc1 was > 30 µM

Here are 4 molecules. What values of AC50 were reported for them?
1. CC(C)C(=O)c1c(C(C)C)nn2ccccc12
2. COC(=O)C1=C(C)NC(C)=C(C(=O)OC(C)(C)CN(C)CCC(c2ccccc2)c2ccccc2)C1c1cccc([N+](=O)[O-])c1 (stereo not given)
3. Cc1cn([C@H]2C[C@H](N=[N+]=[N-])[C@@H](CO)O2)c(=O)[nH]c1=O
4. O=C(Cc1ccc(-c2ccccc2)cc1)Nc1ccccn1 [DIFENPIRAMIDE]

[reply]
1. 0.4 µM
2. > 30 µM
3. > 30 µM
4. > 30 µM

Here are 8 molecules. What values of AC50 were reported for them?
1. CCOc1ccccc1OCC1CNCCO1 (stereo not given)
2. Clc1ccc(C(c2ccccc2Cl)C(Cl)Cl)cc1 (stereo not given)
3. Clc1ccc(CCCOCCCN2CCCCC2)cc1
4. C[C@@H]1O[C@@H](O[C@@H]2C=C3CC[C@@H]4[C@H](CC[C@]5(C)[C@@H](c6ccc(=O)oc6)CC[C@]45O)[C@@]3(C)CC2)[C@H](O)[C@H](O)[C@H]1O
5. O=C(O)/C=C/c1ccc(Cn2ccnc2)cc1
6. C[C@@H](O)[C@H]1C(=O)N2C(C(=O)O)=C(S[C@@H]3CN[C@H](C(=O)N(C)C)C3)[C@H](C)[C@H]12
7. c1cnc(N2CCN(Cc3ccc4c(c3)OCO4)CC2)nc1
8. CC1(C)CCC(CN2CCN(c3ccc(C(=O)NS(=O)(=O)c4ccc(NCC5CCOCC5)c([N+](=O)[O-])c4)c(Oc4cnc5[nH]ccc5c4)c3)CC2)=C(c2ccc(Cl)cc2)C1

[reply]
["> 30 µM", "> 30 µM", "> 30 µM", "> 30 µM", "> 30 µM", "> 300 µM", "> 30 µM", "> 30 µM"]

Here are 6 molecules. What values of AC50 were reported for them?
1. Cc1ccc(-c2cc(C(F)(F)F)nn2-c2ccc(S(N)(=O)=O)cc2)cc1
2. CCCCCNC(=N)N/N=C/c1c[nH]c2ccc(OC)cc12
3. O=C1Nc2ccc(Cl)cc2[C@@](C#CC2CC2)(C(F)(F)F)O1
4. CC[C@H]1CN2CCc3cc(OC)c(OC)cc3[C@@H]2C[C@@H]1C[C@H]1NCCc2cc(OC)c(OC)cc21
5. CO/N=C(\C(=O)N[C@@H]1C(=O)N2C(C(=O)O)=C(CSc3nnnn3C)CS[C@H]12)c1csc(N)n1
6. Nc1nc(Cl)nc2c1ncn2[C@H]1C[C@H](O)[C@@H](CO)O1

[reply]
1. 20 µM
2. 19 µM
3. 15 µM
4. > 30 µM
5. > 30 µM
6. 0.97 µM

###

Molecular target: Alpha-2A adrenergic receptor (Homo sapiens, UniProt P08913); further: assay procedure not described here
Sequence (P08913 whole entry): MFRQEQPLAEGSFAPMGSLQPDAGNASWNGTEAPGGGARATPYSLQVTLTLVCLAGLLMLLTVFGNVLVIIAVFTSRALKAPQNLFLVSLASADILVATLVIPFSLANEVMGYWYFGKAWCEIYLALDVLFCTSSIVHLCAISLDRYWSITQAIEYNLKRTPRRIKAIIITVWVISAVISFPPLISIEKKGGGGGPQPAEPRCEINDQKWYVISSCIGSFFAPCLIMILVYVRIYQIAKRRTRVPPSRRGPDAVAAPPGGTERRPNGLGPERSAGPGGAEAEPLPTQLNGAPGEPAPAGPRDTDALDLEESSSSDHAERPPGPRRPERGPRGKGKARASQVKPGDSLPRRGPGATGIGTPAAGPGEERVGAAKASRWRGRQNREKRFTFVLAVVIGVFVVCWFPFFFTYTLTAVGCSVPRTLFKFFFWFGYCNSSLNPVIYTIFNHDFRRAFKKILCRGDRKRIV
Type: functional, cell-based
metric: AC50

Reported AC50 for COC(=O)C1=C(C)NC(C)=C(C(=O)OC2CCCN(Cc3ccccc3)C2)C1c1cccc([N+](=O)[O-])c1 (stereo unspecified) [BENIDIPINE] was > 30 µM

Reported AC50 for CS(=O)(=O)c1ccc(C2=C(c3ccccc3)C(=O)OC2)cc1 [ROFECOXIB] was > 30 µM

Here are 5 molecules. What values of AC50 were reported for them?
1. CN1C(C(=O)Nc2ccccn2)=C(O)c2sc(Cl)cc2S1(=O)=O [LORNOXICAM]
2. NC(=O)CN1CC(O)CC1=O (stereo unspecified) [OXIRACETAM]
3. COC(=O)C1=C(C)NC(C)=C(C(=O)OC(C)(C)CN(C)CCC(c2ccccc2)c2ccccc2)C1c1cccc([N+](=O)[O-])c1 (stereo unspecified) [LERCANIDIPINE]
4. CC(C)(C)NCC(O)COc1cccc2c1CCC(=O)N2 (stereo unspecified) [CARTEOLOL]
5. COc1ccc(CC(C)(C)NC[C@H](O)c2cc(O)cc3c2OCC(=O)N3)cc1 [OLODATEROL]

[reply]
> 10 µM
> 30 µM
> 30 µM
> 10 µM
> 30 µM
